Hey, just so you know, these numbers are from ChEMBL document CHEMBL1130948.

tested-target: E-selectin (Homo sapiens)
Sequence (P16581 whole entry): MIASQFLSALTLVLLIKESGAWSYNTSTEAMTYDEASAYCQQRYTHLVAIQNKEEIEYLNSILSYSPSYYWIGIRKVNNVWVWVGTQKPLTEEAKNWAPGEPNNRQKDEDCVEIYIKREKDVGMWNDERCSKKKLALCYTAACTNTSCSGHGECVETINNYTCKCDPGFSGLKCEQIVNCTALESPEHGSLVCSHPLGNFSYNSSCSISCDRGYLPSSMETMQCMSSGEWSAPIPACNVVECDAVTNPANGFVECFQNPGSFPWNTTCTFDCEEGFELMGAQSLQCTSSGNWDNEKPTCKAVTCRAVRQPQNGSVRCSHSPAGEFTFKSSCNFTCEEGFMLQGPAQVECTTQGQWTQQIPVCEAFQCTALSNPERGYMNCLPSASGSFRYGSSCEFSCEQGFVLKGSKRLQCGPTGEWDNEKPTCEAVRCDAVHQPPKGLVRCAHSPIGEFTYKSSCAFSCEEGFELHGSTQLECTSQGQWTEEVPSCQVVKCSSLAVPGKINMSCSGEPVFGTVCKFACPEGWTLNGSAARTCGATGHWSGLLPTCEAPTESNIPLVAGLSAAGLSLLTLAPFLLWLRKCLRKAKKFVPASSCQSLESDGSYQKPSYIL
test-name: Compound was tested in a cell-free SLe-polyacrylamide glycoconjugate binding assay (assay B) in Selectin E
Listing: IC50 of selected compounds

- compound: "O=C(O)CCC(C(=O)O)N(C(=O)CC1OC(CO)C(O)C(O)C1O)C(CCC(=O)O)C(=O)NCC(=O)O (stereo not given)"
  tested-target: "E-selectin (Homo sapiens)"
  IC50: "> 4 mM"
- compound: "COC(=O)CNC(=O)C(C)N(C(=O)CC1OC(CO)C(O)C(O)C1O)C(CCC(=O)O)C(=O)O (stereo not given)"
  tested-target: "E-selectin (Homo sapiens)"
  IC50: "> 10 mM"
- compound: "CC(C(=O)NCCc1ccccc1)N(C(=O)CC1OC(COc2ccccc2)C(O)C(O)C1O)C(CCC(=O)O)C(=O)O (stereo not given)"
  tested-target: "E-selectin (Homo sapiens)"
  IC50: "> 2.5 mM"
- compound: "CC1OC(CC(C(=O)NCCc2ccccc2)N(CC(=O)NC(CCC(=O)O)C(=O)O)C(=O)CCc2ccc(Oc3ccc(Oc4ccccc4)cc3)cc2)C(O)C(O)C1O (stereo not given)"
  tested-target: "E-selectin (Homo sapiens)"
  IC50: "> 4 mM"
- compound: "CC1OC(CC(=O)N(CC(=O)NC(CCC(=O)O)C(=O)O)C(CCc2ccc(Oc3ccc(Oc4ccccc4)cc3)cc2)C(=O)NCCc2ccccc2)C(O)C(O)C1O (stereo not given)"
  tested-target: "E-selectin (Homo sapiens)"
  IC50: "> 2.5 mM"
